# System: Ba/F3 EGFR-L858R-C797S (LC)
# test.method.notes: Cell proliferation assay (CellTiter-Glo), Ba/F3 LC
# Assay type: cell-based
# assay.conditions: Ba/F3 EGFR-L858R-C797S cells, 72 hour incubation, CTG readout; read-out: IC50 BaF3 LC
parameter: IC50 (nM)
Supply the numeric figure in nM, leaving out any unit text.

Lab note: need IC50 with Ba/F3 EGFR-L858R-C797S (LC) for entry CC(=O)N[C@@H]1CCN(c2nn3c4cc(ncc24)Nc2ccnc(n2)-c2cnn(C)c2OCC2(CCCC2)C3)C1 , please look it up.
59.9

----------
# Tested on: Ba/F3 EGFR-L858R-T790M-C797S (LTC)
# test.method.notes: Cell proliferation assay (CellTiter-Glo), Ba/F3 LTC
# Format: cell-based
# assay.conditions: Ba/F3 EGFR-L858R-T790M-C797S cells, 72 hour incubation, CTG readout; read-out: IC50 BaF3 LTC
parameter: IC50 (nM)
State just the number; it will be interpreted in nM.

Entry under review: CC(=O)N[C@@H]1CCN(c2nn3c4cc(ncc24)Nc2ccnc(n2)-c2cnn(C)c2OCC2(CCCC2)C3)C1 [Example 49] . Reported IC50?
29.6

----------
# test.method.notes: Pharmacokinetic experiment in mice
# Format: in vivo
# assay.conditions: male, mouse; ICR mice, single oral administration (PO), 10 mg/kg, plasma
parameter: half-life (h)
Write the value in h as a bare number.

See these solved cases before continuing.
compound | readout.value
C[C@H]1CCOc2c(cnn2C)-c2nccc(n2)Nc2cc3c(cn2)c(-c2ccc(CN4CCN(C)CC4)n2C)nn31 [Positive Compoun d, reference compound] | 4.8
CCN1CCC(C#Cc2nn3c4cc(ncc24)Nc2ccnc(n2)-c2cnn(C)c2OCC2(CCCC2)C3)CC1 [Example 7] | 5.6
CCCS(=O)(=O)C[C@H]1CCN(c2nn3c4cc(ncc24)Nc2ccnc(n2)-c2cnn(C)c2OCC2(CCCC2)C3)C1 [Example 42] | 3

Moving on to another compound below.
// lookup half-life for Cn1ncc2c1OCC1(CCCC1)Cn1nc(N3CC[C@@H](C(C)(C)O)C3)c3cnc(cc31)Nc1ccnc-2n1 [Example 13]
2.2

----------
# test.method.notes: Pharmacokinetic experiment in mice
# Format: in vivo
# assay.conditions: male, mouse; ICR mice, single oral administration (PO), 10 mg/kg, plasma
Known AUC(0-t) of a selection of molecules
Dear colleague, please return just the value in ng·h/mL, with no unit written.

Sample records with AUC(0-t):
molecule | AUC(0-t) (ng·h/mL)
Cn1ncc2c1OCC1(CCCC1)Cn1nc(N3CC[C@@H](O)C3)c3cnc(cc31)Nc1ccnc-2n1 [Example 22] | 2340
Cn1ncc2c1OCC1(CCCC1)Cn1nc(N3CC[C@H](CS(=O)(=O)C(F)(F)F)C3)c3cnc(cc31)Nc1ccnc-2n1 [Example 14] | 5320
CN1CCC(C#Cc2nn3c4cc(ncc24)Nc2ccnc(n2)-c2cnn(C)c2OCC2(CCCCC2)C3)CC1 [Example 3] | 3920
Cn1ncc2c1OCC1(CCCC1)Cn1nc(N3CC[C@@H](C(C)(C)O)C3)c3cnc(cc31)Nc1ccnc-2n1 [Example 13] | 8870
Cn1ncc2c1OCC1(CCCCC1)Cn1nc(N3CC[C@H](CS(=O)(=O)C4CC4)C3)c3cnc(cc31)Nc1ccnc-2n1 [Example 41] | 7110
Cn1ncc2c1OCC1(CCCC1)Cn1nc(N3CC[C@H](CS(C)(=O)=O)C3)c3cnc(cc31)Nc1ccnc-2n1 [Example 34] | 2390

May I ask what AUC(0-t) has been recorded for C[C@H]1CCOc2c(cnn2C)-c2nccc(n2)Nc2cc3c(cn2)c(-c2ccc(CN4CCN(C)CC4)n2C)nn31 [Positive Compoun d, reference compound] ?
204
